The measurements presented in this section are drawn from ChEMBL document CHEMBL1201862.

target: FAD-linked sulfhydryl oxidase ALR (Homo sapiens); assay: inhibitors of human ALR sulfhydryl oxidase, dose response, biochemical, H2O2 detection, luminescence, cherry-pick (AID 493248)
Sequence (P55789 whole entry): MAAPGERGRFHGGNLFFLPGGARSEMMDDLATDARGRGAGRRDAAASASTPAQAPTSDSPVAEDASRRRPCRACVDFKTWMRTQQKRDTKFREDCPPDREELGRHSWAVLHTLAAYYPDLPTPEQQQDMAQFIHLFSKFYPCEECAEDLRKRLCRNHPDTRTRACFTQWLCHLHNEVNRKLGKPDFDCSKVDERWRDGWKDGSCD
Active and inactive are the calls of the source.
For each record, write down the corresponding AC50.

Answered cases to consult:
>>> result("CCN(CC)c1ccc(NC(=O)c2cccc(F)c2)c(C)c1")
"1.19 µM (active)"
>>> result("O=C(N/N=C/c1cccnc1)c1cc(O)c(O)c(O)c1")
"< 0.005 µM (active)"
>>> result("COc1ccc(/C(C#N)=C2C=C/C(=N/O)C=C/2)cc1")
"5.88 µM (active)"
>>> result("COc1cc(/C=N/N2C(C)CCCC2C)cc(OC)c1O (configuration not stated)")
"1.1 µM (active)"
>>> result("COc1cc(/C=N/NC(=O)c2cccc(S(=O)(=O)N3CCCC3)c2)cc(OC)c1O")
"0.039 µM (active)"

Hi! Can you tell me AC50 for each of these compounds?
1. CCC(=O)N1CCN=C1SCc1cccc(C(F)(F)F)c1
2. CCc1nnc2n1N=C(c1ccc([N+](=O)[O-])cc1)CS2
3. Cc1ccc(CN2CCN(/N=C/c3ccc(O)c(O)c3)CC2)cc1
4. CC1CCCCC1NC(=O)c1ccc(S(=O)(=O)NNC(=O)c2ccncc2)cc1 (configuration not stated)
5. O=C(O)c1cccc(N2C(=O)/C(=C/c3nc4ccccc4[nH]3)SC2=S)c1
6. CN(C)c1ccc(NC(=O)CCn2c(=S)oc3ccccc32)cc1

output:
4.38 µM (active)
6.01 µM (active)
3.11 µM (active)
2.99 µM (active)
3.31 µM (active)
14.6 µM (active)

input: For Cc1cc(NS(=O)(=O)c2ccc(NC(=O)Nc3cccc(Cl)c3)cc2)no1 , write its AC50.
output: 0.098 µM (active)

* * *

target: Prothrombin (Bos taurus); assay: thrombin inhibition, dose response, biochemical, fluorescence polarization, uHTS hits (AID 602369); assay type: functional
Active and inactive are the calls of the source.
Could you please pick one outcome from this set? 1 (yes) for active, 0 (no) for inactive

Previously resolved entries follow.
>>> classification("CCN(CC)CCOC(=O)c1ccc(NC=C2C(=O)NC(=O)NC2=O)cc1")
"1 (yes)"
>>> classification("O=C(O)c1ccc(COc2ccccc2/C=C2/NC(=O)N(c3cccc(Cl)c3)C2=O)cc1")
"0 (no)"
>>> classification("O=C(NCCCN1CCCCCC1)c1ccc(CS(=O)(=O)Cc2ccccc2F)o1")
"1 (yes)"
>>> classification("CCCCCCCCCCCCCCCC[N+](C)(C)Cc1ccc(F)cc1")
"1 (yes)"
>>> classification("O=C(CSc1nnc(SCc2ccc(Cl)cc2)s1)N/N=C/c1c[nH]c2ccccc12")
"1 (yes)"

input: Each molecule tested received a call. Report the one for O=C(CSc1nc2ccccc2o1)Nc1nc2c(s1)CCCC2 .
output: 1 (yes)

input: Each molecule tested received a call. Report the one for COCCNC(=O)c1c(NC(=O)c2nc(SC)ncc2Cl)sc2c1CCCC2 .
output: 1 (yes)

* * *

molecular target: Carboxy-terminal domain RNA polymerase II polypeptide A small phosphatase 1 (Homo sapiens, UniProt Q9GZU7); experiment: inhibitors of CTDSP1, concentration-response testing, biochemical assay, absorbance-based, actives from ultra-high-throughput screening (AID 540297); format: functional
Sequence (Q9GZU7 whole entry, the tested form may be a part): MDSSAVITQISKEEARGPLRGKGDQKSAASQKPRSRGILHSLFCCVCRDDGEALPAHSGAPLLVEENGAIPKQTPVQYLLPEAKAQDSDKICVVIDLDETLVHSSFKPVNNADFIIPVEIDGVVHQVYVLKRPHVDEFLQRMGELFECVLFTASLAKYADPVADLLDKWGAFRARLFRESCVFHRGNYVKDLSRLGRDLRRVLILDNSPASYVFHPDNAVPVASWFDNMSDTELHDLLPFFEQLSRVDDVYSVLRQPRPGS
The source made the active and inactive calls.
Could you please pick one outcome from this set? 1 (yes) = active, 0 (no) = inactive

Previously resolved entries follow.
>>> classification("CC[N+]1=CN(c2ccccc2)C(C)=CC1(C)C")
"1 (yes)"
>>> classification("Cc1ccccc1NC(=O)Cn1nnc(S(=O)(=O)c2ccc(C(C)(C)C)cc2)c1N")
"1 (yes)"
>>> classification("O=C(O)c1ccc(COc2ccccc2/C=C2/NC(=O)N(c3cccc(Cl)c3)C2=O)cc1")
"1 (yes)"
>>> classification("COc1cc2nc(NC(=O)c3ccco3)sc(=O)c2cc1OC")
"1 (yes)"
>>> classification("Cc1cc(OCC[N+]2(C)CCCCC2)nc2ccccc12")
"1 (yes)"

input: Each molecule tested received a call. Report the one for Cc1cc2oc(C(=O)NCCc3ccc(S(N)(=O)=O)cc3)c(C)c2cc1C .
output: 0 (no)

* * *

For each record, write down the corresponding AC50.
target: Heat shock protein HSP 90-alpha (Homo sapiens); assay type: functional, organism-based
The source made the active and inactive calls.

Hi! Can you tell me AC50 for each of these compounds?
1. CCCCCCCCCCCCCCCC[N+](C)(C)Cc1ccc(F)cc1
2. O=[N+]([O-])c1ccc(O)c(C2CCCCC2)c1
3. COc1ccc(/C(C#N)=C2C=C/C(=N/O)C=C/2)cc1
4. O=C(O)c1ccc(N/N=C/c2ccc(-c3cccc(Cl)c3)o2)cc1
5. Cc1ccc(-n2c(Cl)c(Cl)nc(Cl)c2=O)cc1
6. CCN1/C(=C/c2ccc3cc(C)ccc3[n+]2CC)Sc2ccccc21
7. CCN(CC)S(=O)(=O)c1cccc(NC(=O)c2ccc(Br)cc2)c1

output:
1. 4.51 µM (active)
2. 8.09 µM (active)
3. 4.64 µM (active)
4. 8 µM (active)
5. 1.38 µM (active)
6. 7.73 µM (active)
7. 3.55 µM (active)

Hi! Can you tell me AC50 for each of these compounds?
1. Clc1ccc(/N=c2\ssnc2Cl)cc1
2. O=C(c1ccccc1)c1ccccc1N1C(=O)C=CC1=O
3. Oc1cc(-c2ccc(C3CCCCC3)cc2)[nH]n1
4. CN(C)/C=C/C(=O)c1ccc(N2CCN(c3ncc(C(F)(F)F)cc3Cl)CC2)cc1
5. CSc1nc2ccc(S(=O)(=O)NC3CCCCC3)cc2s1
6. COc1ccc2c(c1)OC[C@H]1[C@H]2N2C(=O)c3cc(OC)ccc3NC(=O)[C@@]2(C)[C@H]1c1ccccc1
7. CCCOC(=O)c1ccc(Oc2c[nH]nc2-c2ccc(OC)cc2O)cc1

output:
1. 8.4 µM (active)
2. 2.21 µM (active)
3. 8 µM (active)
4. 4.29 µM (active)
5. 8.57 µM (active)
6. 16.1 µM (active)
7. 7.97 µM (active)

* * *

test: growth suppression of beta-catenin-knockout colon cells, dose response, cell-based, HCT116, human colon tumor (AID 1045); type: functional;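 further: HCT116 colon tumor cells with beta catenin knocked out; cells exposed to compound for 60 hours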
Activity calls are given as the source filed them.
For each record, write down the corresponding EC50.

Answered cases to consult:
>>> result("OC(CNc1ccccc1)COc1ccc(OCC(O)CNc2ccccc2)cc1 (centres undefined)")
"15 µM (active)"
>>> result("CC(C)(C)S(=O)(=O)c1cnc2c(-c3ccc(Cl)cc3)cnn2c1N")
"11.8 µM (active)"
>>> result("COCCCNC(=O)c1cc2c(=O)n(C)c3ccccc3c2n1C")
"15.4 µM (active)"

We now examine a further molecule.
input: For COc1ccc(C(c2c[nH]c3ccccc23)c2c[nH]c3ccccc23)cc1O , write its EC50.
output: 558 µM (active)

* * *

For each record, write down the corresponding IC50.
target: UniProtKB Q8IL11; assay: P. falciparum M17LAP inhibitors, primary screen, biochemical, fluorogenic H-Leu-NHMec substrate, 1536-well (AID 1619); assay type: functional
Sequence (Q8IL11 whole entry): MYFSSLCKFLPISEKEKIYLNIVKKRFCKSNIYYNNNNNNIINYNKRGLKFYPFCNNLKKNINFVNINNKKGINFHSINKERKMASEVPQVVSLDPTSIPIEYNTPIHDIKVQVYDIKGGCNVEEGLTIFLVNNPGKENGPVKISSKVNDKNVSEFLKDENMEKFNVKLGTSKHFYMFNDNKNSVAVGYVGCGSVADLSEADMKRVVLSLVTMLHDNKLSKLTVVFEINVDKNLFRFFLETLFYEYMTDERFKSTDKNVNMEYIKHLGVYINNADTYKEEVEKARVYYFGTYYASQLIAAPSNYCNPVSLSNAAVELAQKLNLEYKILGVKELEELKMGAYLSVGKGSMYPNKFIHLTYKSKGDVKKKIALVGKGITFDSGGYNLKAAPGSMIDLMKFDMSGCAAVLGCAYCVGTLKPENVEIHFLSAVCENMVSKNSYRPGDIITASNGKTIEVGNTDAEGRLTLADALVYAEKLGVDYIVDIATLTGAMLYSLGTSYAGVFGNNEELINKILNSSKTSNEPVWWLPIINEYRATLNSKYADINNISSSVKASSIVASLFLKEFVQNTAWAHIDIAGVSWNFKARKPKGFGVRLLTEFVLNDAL
Active and inactive are the calls of the source.

Hi! Can you tell me IC50 for each of these compounds?
1. COc1ccc(Nc2nnc(SCC(=O)N3CCCC3)s2)cc1
2. O=C(O)c1ccc(/C=C/c2ccc3cccc(O)c3n2)cc1
3. O=C(O)C1CC=CCC1C(=O)Nc1cccc(F)c1 (stereo unspecified)
4. O=C(CN1C(=O)C2C3CC(C(Br)C3Br)C2C1=O)N1CCOCC1 (stereo unspecified)
5. O=c1cc(CSc2ccccc2)[nH]c(=S)[nH]1
6. CCOc1ccc(NC(=O)CN2C(=O)C3CCCN3C2=O)cc1 (stereo unspecified)

output:
["10.1 µM (active)", "55.5 µM (active)", "14.6 µM (active)", "47.5 µM (active)", "12.5 µM (active)", "3.23 µM (active)"]

* * *

test: Luminescence Cell-Based Dose Response HTS to Identify Inhibitors of 5'UTR Stem-Loop Driven Prion Protein mRNA Translation in H4 Neuroglioblastoma Cells. [Related pubchem assays: 1827 (Project Summary), 1813 (Primary HTS)]; format: functional
Active and inactive are the calls of the source.
For each record, write down the corresponding EC50.

Answered cases to consult:
>>> result("CC(C)CN(Cc1cc(=O)oc2cc(-c3ccccc3)c(O)cc12)CC(C)C")
"> 120 µM (not active)"
>>> result("CN(C)S(=O)(=O)c1ccc(Cl)c(NC(=O)COC(=O)CN2C(=O)C3CCCCC3C2=O)c1 (stereo unspecified)")
"> 120 µM (not active)"
>>> result("Cc1ccc(-c2nnc(SCC(=O)Nc3ccccc3F)o2)cc1")
"< 0.1 µM (active)"

Hi! Can you tell me EC50 for each of these compounds?
1. O=C(Nc1ccccc1)c1cc([N+](=O)[O-])ccc1NC1CCCCC1
2. O=C(Oc1c(-c2ccccc2)c(=O)n2c3c(cccc13)CC2)c1cccc([N+](=O)[O-])c1

output:
> 120 µM (not active)
12.3 µM (active)

input: For O=C1C(Nc2ccc(O)cc2)=C/C(=N/S(=O)(=O)c2cccs2)c2ccccc21 , write its EC50.
output: 0.236 µM (active)
